Catalogue of compounds with associated pIC50
Target: USP28 (Homo sapiens (Human), UniProt Q96RU2)
Sequence (Q96RU2 whole entry): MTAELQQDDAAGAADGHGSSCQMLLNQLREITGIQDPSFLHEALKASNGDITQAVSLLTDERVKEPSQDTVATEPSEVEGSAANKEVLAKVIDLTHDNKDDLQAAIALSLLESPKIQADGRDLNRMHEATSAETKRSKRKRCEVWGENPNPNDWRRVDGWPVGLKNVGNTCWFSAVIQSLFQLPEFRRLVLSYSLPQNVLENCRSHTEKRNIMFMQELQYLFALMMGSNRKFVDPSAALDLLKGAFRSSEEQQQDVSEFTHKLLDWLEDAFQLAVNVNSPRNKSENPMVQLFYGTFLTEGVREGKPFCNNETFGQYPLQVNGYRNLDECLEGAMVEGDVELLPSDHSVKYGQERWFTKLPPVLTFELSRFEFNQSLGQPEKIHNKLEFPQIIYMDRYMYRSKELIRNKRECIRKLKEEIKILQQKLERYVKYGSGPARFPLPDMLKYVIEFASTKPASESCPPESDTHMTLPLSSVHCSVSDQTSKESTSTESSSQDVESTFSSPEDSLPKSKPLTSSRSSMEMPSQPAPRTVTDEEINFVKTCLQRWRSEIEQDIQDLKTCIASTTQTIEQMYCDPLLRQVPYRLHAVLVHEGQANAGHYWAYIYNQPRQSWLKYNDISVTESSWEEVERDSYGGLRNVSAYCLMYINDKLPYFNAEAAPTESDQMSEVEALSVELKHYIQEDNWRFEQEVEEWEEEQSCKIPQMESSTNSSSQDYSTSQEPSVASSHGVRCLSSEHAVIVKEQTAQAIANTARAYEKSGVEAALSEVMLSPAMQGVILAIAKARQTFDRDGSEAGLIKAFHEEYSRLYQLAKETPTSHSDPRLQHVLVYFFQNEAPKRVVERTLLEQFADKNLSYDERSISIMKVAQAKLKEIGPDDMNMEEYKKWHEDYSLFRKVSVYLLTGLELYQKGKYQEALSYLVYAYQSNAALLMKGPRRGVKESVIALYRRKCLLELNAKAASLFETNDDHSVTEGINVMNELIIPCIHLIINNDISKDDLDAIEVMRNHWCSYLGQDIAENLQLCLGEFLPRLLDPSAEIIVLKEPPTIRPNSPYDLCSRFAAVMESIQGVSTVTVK
pIC50: −log10 of the molar value.

>  <Smiles representation>
CCCc1nc2sc3c(OCCc4ccc(OC)c(OC)c4)ncnc3c2c2c1CCC2

>  <pIC50>
5.00 to 6.00

$$$$
>  <Smiles representation>
CCCCCc1nc2sc3c(NCCc4ccc(OC)c(OC)c4)ncnc3c2c2c1CCC2

>  <pIC50>
> 6.00

$$$$
>  <Smiles representation>
Cc1ccc2c(N)c(C(=O)NCCc3ccc(C4CCNCC4)cc3)sc2n1

>  <pIC50>
> 6.00

$$$$
>  <Smiles representation>
CCCCCc1nc2sc(C(=O)NCCc3ccc(OC)c(OC)c3)c(N)c2c2c1CCC2

>  <pIC50>
> 6.00

$$$$
